melting point reference
quantityMeasured: melting point

>>> result("CN[C@H]1CCN(c2ccc3c(NC(=O)CC4CCCCC4)c(Cl)ccc3n2)C1")
"164 to 165 °C"
>>> result("O=C(Nc1c(Cl)ccc2nc(N3CCNCC3)ccc12)C1(C2CCCCC2)CC1")
"219 °C"
>>> result("O=C(CC1CCCCC1)Nc1c(Cl)ccc2nc(NC[C@@H](O)CO)ccc12")
"155 to 159 °C"
>>> result("N[C@H]1CCN(Cc2ccc3c(NC(=O)CC4CCCCC4)c(Cl)ccc3n2)C1")
"160 °C (dec.)"
>>> result("O=C(CC1CCCCC1)Nc1c(Cl)ccc2nc(N3CC[C@H](NS(=O)(=O)C(F)(F)F)C3)ccc12")
"178 to 200 °C"
>>> result("N[C@H]1CCN(c2ccc3c(NC(=O)CC4CCCCC4)c(Cl)ccc3n2)C1")
"219 to 226 °C"
>>> result("CNC1CCCN(c2ccc3c(NC(=O)CC4CCCCC4)c(Cl)ccc3n2)C1 (centres unmarked)")
"158 to 159 °C"
>>> result("C[C@@H]1CN(c2ccc3c(NC(=O)CC4CCCCC4)c(Cl)ccc3n2)C[C@H](C)N1")
"250 to 252 °C"
